Form field: yeast fitness (ln) (one value per entry).
B1: tRNA (parent)
chain: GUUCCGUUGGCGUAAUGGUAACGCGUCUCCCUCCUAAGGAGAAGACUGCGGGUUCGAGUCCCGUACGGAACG

# Variants of: B1
# assay-text: yeast fitness, log relative to wild type (ln ratio); higher = fitter; tRNA-Arg(CCU), competitive growth, 37 C, 1 M NaCl
Reply with just the number.

As a guide, the following entries are already answered.
>  <variant-key>
G6U C27U A70G

>  <measurement-type>
yeast fitness (ln)

>  <reading>
-0.302

$$$$
>  <variant-key>
U2C G6A A43C C46U C66A A70G C71U

>  <measurement-type>
yeast fitness (ln)

>  <reading>
-0.108

$$$$
>  <variant-key>
G1A U2C G6A A43C A70U C71U

>  <measurement-type>
yeast fitness (ln)

>  <reading>
-0.088

$$$$
>  <variant-key>
U2C G6U C27U A43C C66A A69G A70G C71U

>  <measurement-type>
yeast fitness (ln)

>  <reading>
-0.431

$$$$
>  <variant-key>
G1A G6A C66U C71U

>  <measurement-type>
yeast fitness (ln)

>  <reading>
-0.0242

$$$$

Field yeast fitness (ln) (entry G1A U2C G6A A70U C71U ) reads -0.126

Reported yeast fitness (ln) ( U2C G6A C27U A43C C46U ) = -0.0171

So for U2G C66U A69G A70U C71U , the logged yeast fitness (ln) turned out to be -0.381

Please fill in: yeast fitness (ln) reported for A43C C46U C66A A70G = 0.00409

Recorded yeast fitness (ln) (variant G1A U2C A69G C71U ): -0.17

Summary for this variant, U2C G6U A43C A69G A70U : yeast fitness (ln) is -0.152

Lab note: measured yeast fitness (ln) of U2C G6U A43C C46U C66U A70U C71U was -0.254

Recorded yeast fitness (ln) (variant G1A C27U A43C C66A A70G ): -0.173

Reported yeast fitness (ln) of G1A U2G C27U A43C C66A A69G A70G C71U : -0.472

Value of measured yeast fitness (ln) for the entry G1A U2G C27U A43C C46U C66U A70G : -0.172

The measured yeast fitness (ln) associated with G6U C27U A70U C71U reads -0.27

Lab book: yeast fitness (ln) of G1A U2C C27U C46U noted as -0.00588
